- test method notes: Pharmacokinetics in mice
- Type: in vivo
- condition info: mouse, plasma, oral 25 mg/kg (cremophor EL/ethanol/glucose in saline), read-out: peak plasma concentration (Cmax)
readout: Cmax (ng/mL)

>  <molecule>
CC1CC(=C2O[C@@H]3CC(=O)N3C2C(=O)O)C(=O)O1 (single isomer, unassigned)

>  <observed>
2220

$$$$

----------
// values below are reported pIC50
- study system: TEM-1 β-lactamase (Escherichia coli, UniProt P62593)
- Sequence (P62593 whole entry, looked up): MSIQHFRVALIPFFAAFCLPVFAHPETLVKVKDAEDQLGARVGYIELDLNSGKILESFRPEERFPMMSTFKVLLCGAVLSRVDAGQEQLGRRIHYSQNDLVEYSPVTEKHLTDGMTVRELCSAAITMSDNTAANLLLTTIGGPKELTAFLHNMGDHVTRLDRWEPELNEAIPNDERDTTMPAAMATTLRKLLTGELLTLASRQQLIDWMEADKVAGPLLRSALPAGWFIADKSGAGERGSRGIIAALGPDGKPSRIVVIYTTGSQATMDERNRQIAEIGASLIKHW
- test method notes: Cell-free β-lactamase inhibition study (nitrocefin hydrolysis)
- condition info: 10 min pre-incubation at 37° C., nitrocefin substrate
pIC50: −log10 of the molar value.
readout: pIC50

>  <compound>
CC1CC(=C2O[C@@H]3CC(=O)N3C2C(=O)O)C(=O)O1 (single isomer, unassigned) [Example 49]

>  <readout>
pIC50

>  <observed>
8.74

$$$$
>  <compound>
C=CCC(C(=O)O)=C1O[C@@H]2CC(=O)N2C1C(=O)OCc1ccccc1 (stereo partly shown)

>  <readout>
pIC50

>  <observed>
7.51

$$$$
>  <compound>
O=C1OC(CI)CC1=C1O[C@@H]2CC(=O)N2C1C(=O)OCc1ccccc1 (single isomer, unassigned) [Example 41]

>  <readout>
pIC50

>  <observed>
9.70

$$$$
>  <compound>
O=C(OCc1ccccc1)C1C(=C2COC(CI)C2)O[C@@H]2CC(=O)N12 (stereo partly shown)

>  <readout>
pIC50

>  <observed>
5.36

$$$$
>  <compound>
O=CC=C1O[C@@H]2CC(=O)N2C1(C/C=C/c1ccccc1)C(=O)OCc1ccccc1 (stereo partly shown) [Example 5]

>  <readout>
pIC50

>  <observed>
5.31

$$$$
>  <compound>
C=CC/C(CO)=C1/O[C@@H]2CC(=O)N2C1C(=O)OCc1ccccc1 (stereo partly shown) [Example 38a]

>  <readout>
pIC50

>  <observed>
5.71

$$$$
>  <compound>
O=CC(C/C=C/c1ccccc1)=C1O[C@@H]2CC(=O)N2C1C(=O)OCc1ccccc1 (stereo partly shown)

>  <readout>
pIC50

>  <observed>
7.05

$$$$
>  <compound>
COC(=O)C1(C/C=C/c2ccccc2)C(=CC(=O)O)O[C@@H]2CC(=O)N21 (single isomer, unassigned) [Example 35]

>  <readout>
pIC50

>  <observed>
5.81

$$$$
>  <compound>
O=C(O)C=C1O[C@@H]2CC(=O)N2C1(C/C=C/c1ccccc1)C(=O)OCc1ccccc1 (single isomer, unassigned) [Example 28]

>  <readout>
pIC50

>  <observed>
4.34

$$$$
>  <compound>
C=CCC1(C(=O)OCc2ccccc2)C(=CC=O)O[C@@H]2CC(=O)N21 (stereo partly shown)

>  <readout>
pIC50

>  <observed>
6.02

$$$$
>  <compound>
C=CCC(C=O)=C1O[C@@H]2CC(=O)N2C1C(=O)OC (stereo partly shown)

>  <readout>
pIC50

>  <observed>
7.19

$$$$
>  <compound>
C=CCC(C=O)=C1O[C@@H]2CC(=O)N2C1C(=O)OCc1ccccc1 (stereo partly shown)

>  <readout>
pIC50

>  <observed>
7.18

$$$$
>  <compound>
CCCC(C(=O)O)=C1O[C@@H]2CC(=O)N2C1C(=O)O (stereo partly shown)

>  <readout>
pIC50

>  <observed>
6.60

$$$$
>  <compound>
COC(=O)C1C(=C(C/C=C/c2ccccc2)C(=O)O)O[C@@H]2CC(=O)N12 (stereo partly shown)

>  <readout>
pIC50

>  <observed>
7.66

$$$$
>  <compound>
COC(=O)C1(C/C=C/c2ccccc2)C(=CC(=O)O)O[C@@H]2CC(=O)N21 (single isomer, unassigned) [Example 36]

>  <readout>
pIC50

>  <observed>
6.39

$$$$
>  <compound>
O=CC(CC=CCO)=C1O[C@@H]2CC(=O)N2C1C(=O)OCc1ccccc1 (stereo partly shown)

>  <readout>
pIC50

>  <observed>
7.11

$$$$
